Catalogue of MIC V. scophthalmi, Acetic readings, one per entry.
- System: Vibrio scophthalmi
- Type: cell-based
- Test conditions: 48 h
No end group written: not given here.
Measurement type: MIC V. scophthalmi, Acetic

substance="RRWIVKVRIRRR-NH2 [Peptide 2008]" target_system="Vibrio scophthalmi" experimental_result="0.13 µg/mL"
substance="WVGVIIKWGLKL-NH2 [Peptide 3018]" target_system="Vibrio scophthalmi" experimental_result="0.25 µg/mL"
substance="RRQWRGWVRIWL-NH2 [Peptide 3005]" target_system="Vibrio scophthalmi" experimental_result="1.02 µg/mL"
substance="KKWQLLIKWKLR-NH2 [Peptide 3008]" target_system="Vibrio scophthalmi" experimental_result="0.51 µg/mL"
substance="KWRLLIRWRIQK [Peptide 2009]" target_system="Vibrio scophthalmi" experimental_result="0.13 µg/mL"
substance="ILVRWIRWRIQW-NH2 [Peptide 3002]" target_system="Vibrio scophthalmi" experimental_result="1.02 µg/mL"

---

- Test system: Escherichia coli (ATCC 25922)
- Assay type: cell-based
- Test conditions: ATCC 25922, 48 h
No end group written: not given here.
Measurement type: MIC E. coli ATCC 25922, No acetic (µg/mL)

substance="WVGVIIKWGLKL-NH2 [Peptide 3018]" readout_qualifier== experimental_result=16.25
substance="KKWQLLIKWKLR-NH2 [Peptide 3008]" readout_qualifier=> experimental_result=65
substance="KWRLLIRWRIQK [Peptide 2009]" readout_qualifier== experimental_result=2.03
substance="RRWIVKVRIRRR-NH2 [Peptide 2008]" readout_qualifier== experimental_result=4.06
substance="ILVRWIRWRIQW-NH2 [Peptide 3002]" readout_qualifier== experimental_result=16.25
substance="RRQWRGWVRIWL-NH2 [Peptide 3005]" readout_qualifier=> experimental_result=65

---

- System: Vibrio rotiferianus
- Format: cell-based
- Test conditions: 48 h
No end group written: not given here.
Measurement type: MIC V. rotiferianus, No acetic (µg/mL)

substance="ILVRWIRWRIQW-NH2 [Peptide 3002]" unit_abbrev=µg/mL experimental_result=2.03
substance="KWRLLIRWRIQK [Peptide 2009]" unit_abbrev=µg/mL experimental_result=1.02
substance="RRWIVKVRIRRR-NH2 [Peptide 2008]" unit_abbrev=µg/mL experimental_result=1.02
substance="RRQWRGWVRIWL-NH2 [Peptide 3005]" unit_abbrev=µg/mL experimental_result=1.02
substance="KKWQLLIKWKLR-NH2 [Peptide 3008]" unit_abbrev=µg/mL experimental_result=1.02
substance="WVGVIIKWGLKL-NH2 [Peptide 3018]" unit_abbrev=µg/mL experimental_result=4.06

---

MIC V. alginolyticus, salinity 25‰: recorded values
- Tested on: Vibrio alginolyticus
- Format: cell-based
- Test conditions: 48 h
No end group written: not given here.
Measurement type: MIC V. alginolyticus, salinity 25‰

substance="WVGVIIKWGLKL-NH2 [Peptide 3018]" experimental_result="> 65 µg/mL"
substance="KRWWKWIRW-NH2 [HHC10]" experimental_result="> 65 µg/mL"
substance="KRWWKWWRR-NH2 [HHC36]" experimental_result="> 65 µg/mL"
substance="ILVRWIRWRIQW-NH2 [Peptide 3002]" experimental_result="> 65 µg/mL"
substance="RRQWRGWVRIWL-NH2 [Peptide 3005]" experimental_result="> 65 µg/mL"
substance="RRWIVKVRIRRR-NH2 [Peptide 2008]" experimental_result="65 µg/mL"
substance="KWRLLIRWRIQK [Peptide 2009]" experimental_result="65 µg/mL"
substance="KKWQLLIKWKLR-NH2 [Peptide 3008]" experimental_result="> 65 µg/mL"

---

Measured MIC V. alginolyticus, salinity 0‰, listed per entry.
- Tested on: Vibrio alginolyticus
- Type: cell-based
- Test conditions: 48 h
No end group written: not given here.
Measurement type: MIC V. alginolyticus, salinity 0‰ (µg/mL)

substance="KKWQLLIKWKLR-NH2 [Peptide 3008]" readout_qualifier== experimental_result=2.03
substance="WVGVIIKWGLKL-NH2 [Peptide 3018]" readout_qualifier== experimental_result=2.03
substance="ILVRWIRWRIQW-NH2 [Peptide 3002]" readout_qualifier== experimental_result=8.13
substance="KRWWKWWRR-NH2 [HHC36]" readout_qualifier=> experimental_result=65
substance="RRWIVKVRIRRR-NH2 [Peptide 2008]" readout_qualifier== experimental_result=0.13
substance="RRQWRGWVRIWL-NH2 [Peptide 3005]" readout_qualifier== experimental_result=2.03
substance="KRWWKWIRW-NH2 [HHC10]" readout_qualifier== experimental_result=2.03
substance="KWRLLIRWRIQK [Peptide 2009]" readout_qualifier== experimental_result=1.02

Numbers sourced from paper PMC9246773.
